# assay.method.text: Cytotoxicity against human Daudi cells by MTT assay
# Format: cell-based
# condition.description: read-out: TC50 (the source's name)
Cut-off 500 µM on CC50: below means y, at or above means n.

* CCC1(c2cccc(I)c2)Oc2ccccc2-n2cccc2C1=O (racemic) | y
* CCC1(c2cccc(Cl)c2)Oc2ccccc2-n2cccc2C1=O (racemic) | y
* CCC1(c2ccc(COc3cccc(Cl)c3)cc2)Oc2ccccc2-n2cccc2C1=O (racemic) | n
* CCC1(c2ccc(COc3ccccc3)cc2)Oc2ccccc2-n2cccc2C1=O (racemic) | n
* CCC1(c2ccc(COc3cccnc3)cc2)Oc2ccccc2-n2cccc2C1=O (racemic) | n

# check: CC50 < 500 µM for CCC1(c2ccc(CNc3ccccc3)cc2)Oc2ccccc2-n2cccc2C1=O (racemic)
n
